target: Human immunodeficiency virus type 1 integrase (Human immunodeficiency virus 1, UniProt Q7ZJM1); assay: Inhibitory concentration against Recombinant HIV-1 integrase (3'processing)
Sequence (Q7ZJM1 whole entry): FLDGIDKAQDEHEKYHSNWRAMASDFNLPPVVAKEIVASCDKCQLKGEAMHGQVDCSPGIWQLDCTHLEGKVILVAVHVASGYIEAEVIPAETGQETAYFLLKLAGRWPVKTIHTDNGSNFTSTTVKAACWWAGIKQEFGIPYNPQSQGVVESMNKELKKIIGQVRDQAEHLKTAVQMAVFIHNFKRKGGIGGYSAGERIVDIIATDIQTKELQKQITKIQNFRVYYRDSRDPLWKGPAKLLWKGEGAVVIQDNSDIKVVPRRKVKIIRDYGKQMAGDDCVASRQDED
pIC50: −log10 of the molar value.
value.kind: pIC50

[N-]=[N+]=NCc1ccc(C(=O)CC(=O)C(=O)O)cc1	< 4.00

Enquiry: Give pIC50 for the following compound: N#CCCc1cccc(C(=O)CC(=O)C(=O)O)c1
Return: < 4.00

Enquiry: Look up pIC50 of [N-]=[N+]=NC1CCC(N=[N+]=[N-])c2cc(C(=O)CC(=O)C(=O)O)ccc21 (stereo unspecified) and report it.
Return: 4.15

Enquiry: Given the compound [N-]=[N+]=NCc1cc(CN=[N+]=[N-])cc(C(=O)CC(=O)C(=O)O)c1 , write its reported pIC50.
Return: < 4.00

Enquiry: Give me measured pIC50, please, for this compound: CC(C)Oc1ccc(CN=[N+]=[N-])cc1C(=O)CC(=O)C(=O)O
Return: < 4.00

Enquiry: Determine from records and report pIC50 for COc1ccc(C(=O)CC(=O)C(=O)O)cc1CN=[N+]=[N-]
Return: < 4.00

---

target: Human immunodeficiency virus type 1 integrase (Human immunodeficiency virus 1, UniProt Q7ZJM1); test: Inhibitory concentration against Recombinant HIV-1 integrase (Standard transfer reaction)
pIC50: −log10 of the molar value.
value.kind: pIC50

Before answering, review these 2 worked examples.
[N-]=[N+]=NC1CCC(N=[N+]=[N-])c2cc(C(=O)CC(=O)C(=O)O)ccc21 (centres undefined)	6.49
O=C(O)C(=O)CC(=O)c1cccc(OCc2ccccc2)c1	6.46

1 = [N-]=[N+]=NCc1ccc(C(=O)CC(=O)C(=O)O)cc1
2 = [N-]=[N+]=NCc1cccc(C(=O)CC(=O)C(=O)O)c1
Enquiry: Given the listed records, identify the one among 1 and 2 with higher pIC50. Respond with the label that goes with your answer.
Return: 2

Entry source: ChEMBL document CHEMBL1144971
